Each entry below lists one item and its recorded Kd value.
- tested system: IGSF1 항원 (IGSF1 카복시 말단 도메인의 세포외 도메인 - 인간 Fc - his tag 융합 단백질) (human) (UniProt Q8N6C5)
- experiment summary: ELISA; human IGSF1 antigen diluted 1/3 from 100 nM to 0.046 nM; fit in GraphPad Prism 6
Note: unit nM is implicit; provide only the numeric part.

Example entries begin here.
WM-A1-2613 (antibody, V domains shown) VH: QVQLQESGPGLVKPSGTLSLTCAVSGDSVISTDWWSWVRQPPGKELEWIGEIHHSGSTNYNPSLEGRVTISVDKSKNQFSLKLTSVTAVDTAVYYCSRGSGGRDAFDVWGQGTMITVSS VL: QSALTQPPSSSGTPGQKVTISCSGSMSNIGGNYVSWYQQVPGTAPKLLIFKTNQGAAGVPDRFVGSKSGTSASLVISGLRPEDEATYYCASWDDIGDGPTWVFGGGTKLTVL ... 0.1
WM-A1-3133 (antibody, V domains shown) VH: QMQLVQSGGKLVQPGSSLRLSCAASGFSFDDYGMSWVRQAPGKGLEWVSAISGSGGSTYYADSVKGRFTISRDNSKNTLYLQMNSLRAEDTAVYYCARGGRVYGMDVWGQGTTVTVSS VL: DIQMTQSPSSVSASVGDTVTITCRASHDIRRWLAWYQQKPGEVPKVLIYAAAVLHSGVPSRFSGSGSGTDFSLTITNLQPEDVATYYCQKYDSVPFTFGGGTKLEIK ... 300
WM-A1-2608 (antibody, V domains shown) VH: QVQLVQSGGGLVQPGGSLRLSCEASGFAFRRYEMNWVRQTPGKGLEWIAYINSGGSVKVYADSVKGRFAISRNDSKNSLYLQMNSLRAEDTAVYYCARAGNAFGTFDYWGQGTLVTVSS VL: DIQMTQSPSSVSASVGDRVTITCRASQDISRWLAWYQQKPGKAPKRLMYAASVLDVGVPSRFSGSGSGTDFTLTISNLQPEDFATYYCQQPISFPLTFGGGTKVDIK ... 0.097
WM-A1-3102 (antibody, V domains shown) VH: QMQLVQSGAEVKKPGSSVKVSCKASGGTFSSYAISWVRQAPGQGLEWMGGIIPVLGATNYAQRFQGRVTMTADESTTTAYMELSGLRSEDTAVYYCARGRSWGFDYWGHGTLITVSS VL: DIVMTQTPLSLPVTPGQPASISCKSSQSLLHSDGNTYLDWYLQKPGQSPQLLIYTLSHRASGVPDRFSGSGSGTDFTLKISRVEADDVGLYYCMQRIEFPYTFGQGTKVEIK ... 18.8
WM-A1-3106 (antibody, V domains shown) VH: QVQLVESGGGVVPPGGSVRLSCAASGFTFGDYAMHWVRQAPGKGLEWVSLISGDGGTTYYGDSVKGRYTISRDNSKNSLYLQMNSLRAEDTAVYYCARGGRVYGMDVWGQGTTVTVSS VL: DIQMTQSPSSLSASVGNRVTITCRASQGISVWLAWFQQKPETAPKSLIYGSSNLQSGVPSRFSGSGSGTDFTLTINNLQPEDFATYYCQQYKASPPTFGGGTKVDIK ... 20.8

Ask | Which Kd value belongs to WM-A1-3105 (antibody, V domains shown) VH: QMQLVQSGAEVKRPGSSVKVSCKASGRSTYNYAFYWVRQAPGHGLEWMGGIIPIFGATNYAQKFQGRVTITADESTNTAYMEVTNLRSEDTAVYYCAKGSGNYYYGMDVWGQGTTVTVSS VL: DIQMTQSPSSVSASVGDRVTITCRASQSVGTWLAWYQQKPGRAPKLLISAASSLHPGVPSRFSGSGSGTDFTLTISSLQPEDFATYYCQQADSFPYTFGQGTKLEIK ?
Reply | 29.5

Ask | Which Kd value belongs to WM-A1-3128 (antibody, V domains shown) VH: QVQLVESGGGVVQPGKSLRLSCAASGFSLRTYGMHWVRQAPGKGLEWVANIWHDGSHTFYADSVQGRFTVSRDNSANLLFLQMNSLRAEDTAVYYCARGGSYSRYSDAFDIWGQGTVITVSS VL: DIQMTQSPGTLSLSPGERATLSCRASQSVSSSYLAWYQQKPGQAPRLLIYDASNRATGIPARFSGTGSGTDFTLTISSLEPEDFAVYYCQQRSNWPLTFGGGTKVEIK ?
Reply | 27.2

Each recorded value in this set is attributed to patent KR20230163144A.
